Hey, just so you know, these numbers are from PubChem BioAssay AID2060486.

- System: IGROV1 complex spheroids (HUVEC, MSC), viability % test/control
- Test Description: Anticancer human tumor IGROV1 cell line growth inhibition [GQUAD];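 further: spheroids exposed to compounds for 7 days before readout; 100% = DMSO vehicle control viability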
- Recorded Conditions: second compound 10 µM; first compound 0.00316 µM; hits give low values
Kindly state viability, T/C for each of the entries shown.
The reply should be a number in %, with the unit left off.

Q: Name the recorded viability, T/C of the molecule listed here: Cc1[nH]c2ccccc2c1CCNCc1ccc(/C=C/C(=O)NO)cc1 + Cc1[nH]c2ccc(F)cc2c1-c1nc2c3cccnc3c3ncccc3c2[nH]1
Ans: 3.82

Q: Name the recorded viability, T/C of the molecule listed here: Cn1ncnc1[C@H]1c2n[nH]c(=O)c3cc(F)cc(c23)N[C@@H]1c1ccc(F)cc1 + CN(C)c1ccc(Nc2c3ccc(NC(=O)CCN4CCCC4)cc3nc3cc(NC(=O)CCN4CCCC4)ccc23)cc1
Ans: 40.2

Q: Name the recorded viability, T/C of the molecule listed here: CC[C@@]1(O)C(=O)OCc2c1cc1n(c2=O)Cc2cc3c(CN(C)C)c(O)ccc3nc2-1 + Cc1[nH]c2ccc(F)cc2c1-c1nc2c3cccnc3c3ncccc3c2[nH]1
Ans: 3.46

Q: Name the recorded viability, T/C of the molecule listed here: CC[C@@]1(O)C(=O)OCc2c1cc1n(c2=O)Cc2cc3c(CN(C)C)c(O)ccc3nc2-1 + Cc1cnc(CNC(=O)c2c(=O)c3ccc(N4CCCN(C)CC4)nc3n3c2sc2ccccc23)cn1
Ans: 9.45

Q: Name the recorded viability, T/C of the molecule listed here: CCc1c2c(nc3ccc(O)cc13)-c1cc3c(c(=O)n1C2)COC(=O)[C@]3(O)CC + Cc1cnc(CNC(=O)c2c(=O)c3ccc(N4CCCN(C)CC4)nc3n3c2sc2ccccc23)cn1
Ans: 8.08

Q: Name the recorded viability, T/C of the molecule listed here: Cc1[nH]c2ccccc2c1CCNCc1ccc(/C=C/C(=O)NO)cc1 + Cc1cnc(CNC(=O)c2c(=O)c3ccc(N4CCCN(C)CC4)nc3n3c2sc2ccccc23)cn1
Ans: 7.04

Q: Name the recorded viability, T/C of the molecule listed here: CCc1c2c(nc3ccc(O)cc13)-c1cc3c(c(=O)n1C2)COC(=O)[C@]3(O)CC + Cc1[nH]c2ccc(F)cc2c1-c1nc2c3cccnc3c3ncccc3c2[nH]1
Ans: 3.78
